biological target: F508delCFTR (Homo sapiens, UniProt P13569, DEL508-508); construct: expressed in transfected cells; host or cells: CFBE41o- human lung-derived epithelial cells (CFBE4lo-F508delCFTR-HRP), doxycycline-inducible; assay: Cell Surface Expression-Horse Radish Peroxidase (CSE-HRP) Assay; type: cell-based; details: with co-corrector (2 μM of 3-[(2R,4R)-4-({[1-(2,2-difluoro-1,3-benzodioxol-5-yl)cyclopropyl]carbonyl}amino)-7-methoxy-3,4-dihydro-2H-chromen-2-yl]benzoic acid); read-out: EC50 (with co-corrector)
Sequence (P13569 with tags, fused parts or gaps DEL508-508): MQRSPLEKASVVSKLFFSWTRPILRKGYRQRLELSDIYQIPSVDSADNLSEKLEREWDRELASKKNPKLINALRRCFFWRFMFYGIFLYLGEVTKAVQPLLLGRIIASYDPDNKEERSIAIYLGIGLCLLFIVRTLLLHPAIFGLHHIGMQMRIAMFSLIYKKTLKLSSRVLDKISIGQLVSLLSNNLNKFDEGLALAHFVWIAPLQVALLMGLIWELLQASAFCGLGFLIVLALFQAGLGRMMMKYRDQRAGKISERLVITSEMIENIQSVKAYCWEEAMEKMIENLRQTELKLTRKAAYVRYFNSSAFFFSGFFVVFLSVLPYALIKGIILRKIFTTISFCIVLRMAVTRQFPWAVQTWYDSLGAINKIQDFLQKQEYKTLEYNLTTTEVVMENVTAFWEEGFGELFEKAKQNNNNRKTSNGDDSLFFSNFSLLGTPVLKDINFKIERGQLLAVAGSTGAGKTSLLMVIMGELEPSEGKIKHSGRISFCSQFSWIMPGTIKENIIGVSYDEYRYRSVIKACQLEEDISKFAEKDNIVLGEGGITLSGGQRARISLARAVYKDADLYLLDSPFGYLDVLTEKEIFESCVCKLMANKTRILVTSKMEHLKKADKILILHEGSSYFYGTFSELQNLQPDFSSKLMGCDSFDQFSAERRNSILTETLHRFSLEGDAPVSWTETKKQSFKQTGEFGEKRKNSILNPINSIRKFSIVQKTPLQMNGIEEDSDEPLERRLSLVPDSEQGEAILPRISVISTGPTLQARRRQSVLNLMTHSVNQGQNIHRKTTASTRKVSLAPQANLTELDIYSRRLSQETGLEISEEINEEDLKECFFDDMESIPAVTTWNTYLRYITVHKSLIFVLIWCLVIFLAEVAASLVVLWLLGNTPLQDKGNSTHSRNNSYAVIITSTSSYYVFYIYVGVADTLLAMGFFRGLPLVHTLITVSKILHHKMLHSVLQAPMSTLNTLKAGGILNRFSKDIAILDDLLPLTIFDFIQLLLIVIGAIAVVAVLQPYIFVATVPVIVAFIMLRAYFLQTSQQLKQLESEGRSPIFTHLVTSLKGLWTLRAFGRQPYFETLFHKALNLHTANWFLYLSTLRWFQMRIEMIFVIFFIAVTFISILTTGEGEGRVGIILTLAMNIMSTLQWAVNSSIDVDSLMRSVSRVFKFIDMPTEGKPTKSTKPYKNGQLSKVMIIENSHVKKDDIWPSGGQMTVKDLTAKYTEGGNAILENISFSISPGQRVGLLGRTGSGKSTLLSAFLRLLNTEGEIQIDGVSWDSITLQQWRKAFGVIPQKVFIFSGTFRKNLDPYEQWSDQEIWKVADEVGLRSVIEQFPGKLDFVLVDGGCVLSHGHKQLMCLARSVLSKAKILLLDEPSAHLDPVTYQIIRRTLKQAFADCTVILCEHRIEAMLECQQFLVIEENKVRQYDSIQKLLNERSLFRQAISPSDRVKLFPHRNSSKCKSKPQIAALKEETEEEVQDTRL
pEC50: −log10 of the molar value.
Metric Name: pEC50

Previously resolved entries follow.
COc1cc(C(F)(F)F)ccc1CN[C@H]1[C@H](C(C)(C)C)[C@@H](C(=O)O)N(C(=O)OC(C)C)[C@H]1c1cccnc1OC [II-513] = 5.00 to 6.00
COc1ccc(C(C)(C)C)cc1CN[C@H]1[C@H](C(C)(C)C)[C@@H](C(=O)O)N(C(=O)[C@@H]2CCC[C@@H](OC)C2)[C@H]1c1cccnc1N(C)C (relative stereo) [II-449] = > 6.00

List reported pEC50 for each of these molecules:
1. COc1ccc(C(C)(C)C)cc1CN[C@H]1[C@H](C(C)(C)C)[C@@H](C(=O)O)N(C(=O)C2CCCC(C)(C)C2)[C@H]1c1ccccc1 (stereo partly drawn) [III-203]
2. COc1cc(C(F)(F)F)cc(N(C)[C@@H]2[C@@H](C(C)(C)C)[C@H](C(=O)O)N(C(=O)C3CCCCC3)[C@@H]2c2ccccc2)n1 (racemic) [III-17]
3. COc1ccc(C(C)(C)C)cc1CN[C@H]1[C@H](C(C)(C)C)[C@@H](C(=O)O)N(C(=O)C2CCCCC2)[C@H]1c1cccnc1OC [Example 17]
4. COc1ccc(C(C)(C)C)cc1CN[C@H]1[C@H](C(C)(C)C)[C@@H](C(=O)O)N(C(=O)[C@H]2OCC[C@H]2c2ccccc2)[C@H]1c1ccccc1 (relative stereo) [Example I-179]
5. COc1ccc2cc(C)nc(N[C@H]3[C@H](C(C)(C)C)[C@@H](C(=O)O)N(C(=O)C4CCCCC4)[C@H]3c3ccccc3)c2c1 [III-154]
6. COc1nc2ccccc2cc1CN[C@H]1[C@H](C(C)(C)C)[C@@H](C(=O)O)N(C(=O)[C@@H]2CCCO2)[C@H]1c1ccccc1C(C)C [Example 100]

[reply]
["> 6.00", "5.00 to 6.00", "> 6.00", "5.00 to 6.00", "5.00 to 6.00", "> 6.00"]

List reported pEC50 for each of these molecules:
1. COc1ccc([Si](C)(C)C)cc1CN[C@H]1[C@H](C(C)(C)C)[C@@H](C(=O)O)N(C(=O)C2CCCCC2)[C@H]1c1ccccc1 [Example I-171]
2. COc1ncc(C2CCC2)cc1CN[C@H]1[C@H](C(C)(C)C)[C@@H](C(=O)O)N(C(=O)C2CCCCC2)[C@H]1c1cccnc1OC [Example I-237]
3. COC(C)(C)[C@@H]1[C@@H](Nc2cc(C(F)(F)F)cc(C)n2)[C@@H](c2ccccc2)N(C(=O)C2CCCCC2)[C@H]1C(=O)O (racemic) [Example 5]
4. COc1ccc(C(F)(F)F)cc1CN[C@@H]1[C@H](C(C)(C)C)[C@@H](C(=O)O)N(C(=O)OC(C)C)[C@H]1c1ccccc1 [II-556]

[reply]
1: > 6.00; 2: 5.00 to 6.00; 3: 5.00 to 6.00; 4: 5.00 to 6.00

The reported numbers originate from patent US20180099931A1.
